System: DU-145
MEASUREMENT_NOTES: Cytotoxicity against human DU145 cells after 48 hrs by SRB assay
Assay type: functional, cell-based
ASSAY_SETUP: Homo sapiens, DU-145, 48 h; read-out: LC50 (the source's name)
Lab note: anything with CC50 below 800 nM is marked Satisfied; values at 800 nM or higher are marked Not satisfied.

[
  {
    "SMILES_ENTRY": "C/C=C1\\NC(=O)[C@H](Cc2ccccc2)NC(=O)[C@@H](C(C)C)NC(=O)[C@@H]([C@H](C)CC)NC(=O)[C@H](NC(=O)[C@H](NC(=O)[C@H](CCCN)NC(=O)[C@H]2CCCN2C(=O)[C@H](NC(=O)[C@@H](NC(=O)[C@@H](NC(=O)[C@H](NC(=O)CC[C@@H](C)[C@H]2CC[C@H]3[C@@H]4CC[C@@H]5C[C@H](OC(=O)C(F)(F)F)CC[C@]5(C)[C@H]4CC[C@]23C)C(C)C)[C@@H](C)O)C(C)C)C(C)C)[C@H](C)CC)[C@H](C)OC(=O)[C@H](C(C)C)NC1=O",
    "ASSIGNED_CATEGORY": "Satisfied"
  },
  {
    "SMILES_ENTRY": "C/C=C1\\NC(=O)[C@H](Cc2ccccc2)NC(=O)[C@@H](C(C)C)NC(=O)[C@@H]([C@H](C)CC)NC(=O)[C@H](NC(=O)[C@H](NC(=O)[C@H](CCCN)NC(=O)[C@H]2CCCN2C(=O)[C@H](NC(=O)[C@@H](NC(=O)[C@@H](NC(=O)[C@H](NC(=O)CCCCCCCCCCCCCCC)C(C)C)[C@@H](C)O)C(C)C)C(C)C)[C@H](C)CC)[C@H](C)OC(=O)[C@H](C(C)C)NC1=O",
    "ASSIGNED_CATEGORY": "Satisfied"
  },
  {
    "SMILES_ENTRY": "C/C=C1\\NC(=O)[C@H](Cc2ccccc2)NC(=O)[C@H](C(C)C)NC(=O)[C@@H]([C@H](C)CC)NC(=O)[C@H](NC(=O)[C@H](NC(=O)[C@H](CCCN)NC(=O)[C@H]2CCCN2C(=O)[C@H](NC(=O)[C@@H](NC(=O)[C@@H](NC(=O)[C@H](NC(=O)CCCC(C)C)C(C)C)[C@@H](C)O)C(C)C)C(C)C)[C@H](C)CC)[C@H](C)OC(=O)[C@H](C(C)C)NC1=O",
    "ASSIGNED_CATEGORY": "Not satisfied"
  },
  {
    "SMILES_ENTRY": "C/C=C1\\NC(=O)[C@H](Cc2ccccc2)NC(=O)[C@@H](C(C)C)NC(=O)[C@@H]([C@H](C)CC)NC(=O)[C@H](NC(=O)[C@H](NC(=O)[C@H](CCCN)NC(=O)[C@H]2CCCN2C(=O)[C@H](NC(=O)[C@@H](NC(=O)[C@@H](NC(=O)[C@H](NC(=O)CCCC(C)C)C(C)C)[C@@H](C)O)[C@@H](C)O)C(C)C)[C@H](C)CC)[C@H](C)OC(=O)[C@H](C(C)C)NC1=O",
    "ASSIGNED_CATEGORY": "Not satisfied"
  },
  {
    "SMILES_ENTRY": "C/C=C1\\NC(=O)[C@H](Cc2ccc(-c3ccccc3)cc2)NC(=O)[C@@H](C(C)C)NC(=O)[C@@H]([C@H](C)CC)NC(=O)[C@H](NC(=O)[C@H](NC(=O)[C@H](CCCN)NC(=O)[C@H]2CCCN2C(=O)[C@H](NC(=O)[C@@H](NC(=O)[C@@H](NC(=O)[C@H](NC(=O)CCCC(C)C)C(C)C)[C@@H](C)O)C(C)C)C(C)C)[C@H](C)CC)[C@H](C)OC(=O)[C@H](C(C)C)NC1=O",
    "ASSIGNED_CATEGORY": "Satisfied"
  },
  {
    "SMILES_ENTRY": "C/C=C1\\NC(=O)[C@H](Cc2ccccc2)NC(=O)[C@@H](C(C)C)NC(=O)[C@@H]([C@H](C)CC)NC(=O)[C@H](NC(=O)[C@H](NC(=O)[C@H](CCCN)NC(=O)[C@H]2CCCN2C(=O)[C@H](NC(=O)[C@@H](NC(=O)[C@H](NC(=O)[C@H](NC(=O)CCCC(C)C)C(C)C)[C@@H](C)O)C(C)C)C(C)C)[C@H](C)CC)[C@H](C)OC(=O)[C@H](C(C)C)NC1=O",
    "ASSIGNED_CATEGORY": "Not satisfied"
  },
  {
    "SMILES_ENTRY": "C/C=C1\\NC(=O)[C@@H]2Cc3ccccc3CN2C(=O)[C@@H](C(C)C)NC(=O)[C@@H]([C@H](C)CC)NC(=O)[C@H](NC(=O)[C@H](NC(=O)[C@H](CCCN)NC(=O)[C@H]2CCCN2C(=O)[C@H](NC(=O)[C@@H](NC(=O)[C@@H](NC(=O)[C@H](NC(=O)CC[C@@H](C)CC)C(C)C)[C@@H](C)O)C(C)C)C(C)C)[C@H](C)CC)[C@H](C)OC(=O)[C@H](C(C)C)NC1=O",
    "ASSIGNED_CATEGORY": "Not satisfied"
  },
  {
    "SMILES_ENTRY": "C/C=C1\\NC(=O)[C@H](Cc2ccccc2)NC(=O)[C@@H](C(C)C)NC(=O)[C@@H]([C@H](C)CC)NC(=O)[C@H](NC(=O)[C@H](NC(=O)[C@H](CCCN)NC(=O)[C@H]2CCCN2C(=O)[C@H](NC(=O)[C@@H](NC(=O)[C@H](CC(C)C)NC(=O)[C@H](NC(=O)CCCC(C)C)C(C)C)C(C)C)C(C)C)[C@H](C)CC)[C@H](C)OC(=O)[C@H](C(C)C)NC1=O",
    "ASSIGNED_CATEGORY": "Not satisfied"
  },
  {
    "SMILES_ENTRY": "C/C=C1\\NC(=O)[C@H](c2ccccc2)NC(=O)[C@@H](C(C)C)NC(=O)[C@@H]([C@H](C)CC)NC(=O)[C@H](NC(=O)[C@H](NC(=O)[C@H](CCCN)NC(=O)[C@H]2CCCN2C(=O)[C@H](NC(=O)[C@@H](NC(=O)[C@@H](NC(=O)[C@H](NC(=O)CCCC(C)C)C(C)C)[C@@H](C)O)C(C)C)C(C)C)[C@H](C)CC)[C@H](C)OC(=O)[C@H](C(C)C)NC1=O",
    "ASSIGNED_CATEGORY": "Not satisfied"
  }
]

###

Below, each of the molecules is paired with its reported CC50 value.
Tested on: SK-BR-3
MEASUREMENT_NOTES: Cytotoxicity against human SKBR3 cells after 48 hrs by SRB assay
Format: functional
ASSAY_SETUP: SK-BR-3, 48 h, read-out: LC50 (the source's name)

[
  {
    "SMILES_ENTRY": "C/C=C1\\NC(=O)[C@H](Cc2ccccc2)NC(=O)[C@@H](C(C)C)NC(=O)[C@@H]([C@H](C)CC)NC(=O)[C@H](NC(=O)[C@H](NC(=O)[C@H](CCCN)NC(=O)[C@H]2CCCN2C(=O)[C@H](NC(=O)[C@@H](NC(=O)[C@@H](NC(=O)[C@@H](C(C)C)N(CCCCCC)CCCCCC)[C@@H](C)O)C(C)C)C(C)C)[C@H](C)CC)[C@H](C)OC(=O)[C@H](C(C)C)NC1=O",
    "MEASURED_ON": "SK-BR-3",
    "CC50 / nM": 3530
  },
  {
    "SMILES_ENTRY": "C/C=C1\\NC(=O)[C@H](Cc2ccccc2)NC(=O)[C@@H](C(C)C)NC(=O)[C@@H](C(C)C)NC(=O)[C@H](NC(=O)[C@H](NC(=O)[C@H](CCCN)NC(=O)[C@H]2CCCN2C(=O)[C@H](NC(=O)[C@@H](NC(=O)[C@@H](NC(=O)[C@H](NC(=O)CCCC(C)C)C(C)C)[C@@H](C)O)C(C)C)C(C)C)C(C)C)[C@H](C)OC(=O)[C@H](C(C)C)NC1=O",
    "MEASURED_ON": "SK-BR-3",
    "CC50 / nM": 1450
  },
  {
    "SMILES_ENTRY": "C/C=C1\\NC(=O)[C@H](Cc2ccccc2)NC(=O)[C@@H](C(C)C)NC(=O)[C@@H]([C@H](C)CC)NC(=O)[C@H](NC(=O)[C@H](NC(=O)[C@H](CCCN)NC(=O)[C@H]2CCCN2C(=O)[C@H](NC(=O)[C@@H](NC(=O)[C@@H](NC(=O)[C@H](NC(=O)CC[C@H](C)CC)C(C)C)[C@@H](C)O)C(C)C)C(C)C)[C@H](C)CC)[C@H](C)OC(=O)[C@H](C(C)C)NC1=O",
    "MEASURED_ON": "SK-BR-3",
    "CC50 / nM": 383
  }
]
